Assay: Pharmacokinetics in phase I trial, 24 hours iv infusion once every two weeks
Format: in vivo, human
Settings: human, in vivo, patients
property.name: clearance

Prompt: Quick one: clearance for `CO[C@@H](C(=O)N1Cc2n[nH]c(NC(=O)c3ccc(N4CCN(C)CC4)cc3)c2C1)c1ccccc1` ?
Completion: 5 to 7.5 mL/min/kg

###

Assay: Pharmacokinetics in phase I trial, 24 hours iv infusion once every two weeks
Type: in vivo, human
Conditions: human, in vivo, patients, read-out: terminal half-life
property.name: half-life

Prompt: Need half-life of `CO[C@@H](C(=O)N1Cc2n[nH]c(NC(=O)c3ccc(N4CCN(C)CC4)cc3)c2C1)c1ccccc1` , thanks.
Completion: 18 to 30 h
